# tested.on: human Cav1.2 (Homo sapiens (Human), UniProt Q13936)
# Sequence (Q13936 whole entry): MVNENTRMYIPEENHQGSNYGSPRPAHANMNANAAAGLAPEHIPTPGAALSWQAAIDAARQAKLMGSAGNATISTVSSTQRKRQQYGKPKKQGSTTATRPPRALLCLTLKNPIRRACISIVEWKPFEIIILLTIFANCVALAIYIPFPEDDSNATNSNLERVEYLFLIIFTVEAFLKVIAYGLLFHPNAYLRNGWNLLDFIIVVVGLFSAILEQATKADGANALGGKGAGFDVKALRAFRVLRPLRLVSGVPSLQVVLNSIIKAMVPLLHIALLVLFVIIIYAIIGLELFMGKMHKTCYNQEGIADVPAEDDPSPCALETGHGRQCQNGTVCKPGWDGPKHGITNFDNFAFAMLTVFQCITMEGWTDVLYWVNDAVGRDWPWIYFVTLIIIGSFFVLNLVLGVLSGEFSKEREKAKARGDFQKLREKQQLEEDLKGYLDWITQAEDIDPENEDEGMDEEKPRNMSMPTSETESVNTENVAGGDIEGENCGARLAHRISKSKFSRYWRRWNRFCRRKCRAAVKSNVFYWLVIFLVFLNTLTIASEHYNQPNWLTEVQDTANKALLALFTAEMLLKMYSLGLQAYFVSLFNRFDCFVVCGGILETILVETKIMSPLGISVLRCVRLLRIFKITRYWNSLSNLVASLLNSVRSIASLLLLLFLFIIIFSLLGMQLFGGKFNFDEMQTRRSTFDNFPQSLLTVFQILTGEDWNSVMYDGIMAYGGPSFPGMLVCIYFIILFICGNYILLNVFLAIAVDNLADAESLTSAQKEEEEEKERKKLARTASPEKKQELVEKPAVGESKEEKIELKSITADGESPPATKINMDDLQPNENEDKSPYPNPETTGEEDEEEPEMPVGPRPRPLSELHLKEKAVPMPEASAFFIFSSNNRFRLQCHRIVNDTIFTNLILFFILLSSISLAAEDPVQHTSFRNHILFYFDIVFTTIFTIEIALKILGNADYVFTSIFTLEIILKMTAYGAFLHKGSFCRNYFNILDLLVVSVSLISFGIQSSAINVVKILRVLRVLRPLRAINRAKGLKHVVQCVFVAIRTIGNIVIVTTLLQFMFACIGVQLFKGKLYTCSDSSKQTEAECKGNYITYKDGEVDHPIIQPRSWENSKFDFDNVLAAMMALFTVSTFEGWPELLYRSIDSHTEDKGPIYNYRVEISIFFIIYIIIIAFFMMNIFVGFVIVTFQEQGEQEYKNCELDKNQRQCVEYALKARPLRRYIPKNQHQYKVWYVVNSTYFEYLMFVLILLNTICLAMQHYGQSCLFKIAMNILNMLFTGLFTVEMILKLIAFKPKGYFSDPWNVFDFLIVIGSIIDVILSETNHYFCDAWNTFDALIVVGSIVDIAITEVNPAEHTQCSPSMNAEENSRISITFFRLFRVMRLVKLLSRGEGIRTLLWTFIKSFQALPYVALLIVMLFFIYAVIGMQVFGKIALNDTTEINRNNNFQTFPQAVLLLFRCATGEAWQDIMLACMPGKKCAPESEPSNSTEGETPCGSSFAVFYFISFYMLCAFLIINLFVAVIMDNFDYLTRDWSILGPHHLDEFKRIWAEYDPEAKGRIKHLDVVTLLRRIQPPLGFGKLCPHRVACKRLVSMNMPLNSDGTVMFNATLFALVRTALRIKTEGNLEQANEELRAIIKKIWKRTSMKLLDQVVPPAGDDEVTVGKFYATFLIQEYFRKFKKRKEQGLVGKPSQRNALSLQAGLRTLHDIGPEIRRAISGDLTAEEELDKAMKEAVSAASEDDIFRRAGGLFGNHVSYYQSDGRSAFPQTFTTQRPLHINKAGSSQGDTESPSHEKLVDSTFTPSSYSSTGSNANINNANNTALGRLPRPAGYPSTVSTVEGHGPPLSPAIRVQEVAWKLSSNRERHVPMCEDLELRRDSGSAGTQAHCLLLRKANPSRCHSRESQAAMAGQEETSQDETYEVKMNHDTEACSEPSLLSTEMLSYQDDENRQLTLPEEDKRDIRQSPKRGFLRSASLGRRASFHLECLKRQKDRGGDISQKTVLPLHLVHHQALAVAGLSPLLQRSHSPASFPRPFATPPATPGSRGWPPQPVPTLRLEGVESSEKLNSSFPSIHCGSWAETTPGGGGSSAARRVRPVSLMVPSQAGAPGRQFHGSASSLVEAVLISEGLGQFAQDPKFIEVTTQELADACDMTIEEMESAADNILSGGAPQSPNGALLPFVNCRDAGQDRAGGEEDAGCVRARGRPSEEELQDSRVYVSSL
# method.summary: QPatch channel biophysics assay (V1/2 voltage shift, tau of inactivation) in the Cav1.2-HEK293 (AUX) cell line
# Assay type: cell-based
# condition.set: comparative examples
# Protocol: Clonal isolation was achieved under Neomycin selection. Each experimental run uses 1.5 mL of cells. The protocol had eight liquid periods. […] The protocol had four liquid periods.
Assign Biophysics voltage shift to each entry below.
Give bare numbers, in mV.

These solved cases illustrate the format of a correct answer.
compound="CCOC(=O)C1=C(C)NC2=C(C(=O)OC2)[C@H]1c1ccccc1OC(F)F [Comparative Example 3, CGP028392]" endpoint="Biophysics voltage shift" val=−6.7
compound="COC(=O)C1=C(C)NC2=C(C(=O)OC2)C1c1ccccc1OC(F)F (stereo not shown) [Comparative Example 6]" endpoint="Biophysics voltage shift" val=−7.1

I would be grateful if you could provide Biophysics voltage shift for each of the following entries.
1. COC(=O)C1=C(C)NC2=C(C(=O)OC2)C1c1ccccc1C(F)(F)F (stereo not shown) [Comparative Example 5]
2. CCOC(=O)C1=C(C)NC2=C(C(=O)OC2)[C@H]1c1ccccc1OCc1ccccc1 [Comparative Example 2, RS30124]

RESULT:
1. −4.3
2. −15.4
